System: mushroom body structure in dfmr1 null fly brain
PROTOCOL DETAILS: Staining and analysis of mushroom body morphology
Assay type: in vivo, Drosophila
SETUP CONDITIONS: 0- to 2-day-old adults developed on LF supplemented with drug at optimal viability dose
QUANTITY: mushroom body defects of dfmr1 mutant adults (in words)

> print(dat)
                            compound                   value
1    CC[C@H]1C(=O)OC[C@@H]1Cc1cncn1C  significantly improved
2  O=C(O)C1CCCNC1 (stereo not shown)  significantly improved
3                         NCCCC(=O)O  significantly improved
